# assay notes: Pharmacokinetic study in female mice (plasma, liver, bone)
# Format: in vivo, female C57/BL6 mice
# measurement parameters: female, C57/BL6, mouse, plasma, po, 10 mg/kg, plasma; PO (QD*3) 10 mg/kg; read-out: AUClast
# Excerpt: FIG. 24A depicts the plasma profile. FIG. 24B depicts the liver profile and FIG. 24C depicts the bone profiles. The actual concentration (ng/g) is the detected value (ng/mL) multiplied by 4. […] 40% HP-b-CD-75% PEG300. Three mice were used per time point. Results are expressed as the mean SEM. 2-hydroxypropyl-beta-cyclodextrin (HPBCD). FIG. 24A depicts the plasma profile. […] The actual concentration (ng/g) is the detected value (ng/mL) multiplied by 4. […] Results are expressed as the mean±SEM.
measured endpoint: AUC(0-t) (ng·h/mL)
Give bare numbers, in ng·h/mL.

Q: Reported AUC(0-t) for `O=C1Nc2ccc(-c3cc(C(F)(F)F)cc(C(F)(F)F)c3)cc2C(=O)N2CCN(C(=O)COc3ccc(OC(F)(F)F)cc3I)C[C@@H]12` : what is it?
Ans: 3260
